Assay: Phase 1 trial: plasma pharmacokinetics of TSR-011 IR (LC-MS/MS, noncompartmental analysis)
Assay type: in vivo, human
Details: human, plasma; cycle 2/day 1, daily oral 80–480 mg; read-out: Median tmax
Protocol: To evaluate PK and establish the RP2D, blood samples were collected from all patients in the phase 1 dose-escalation trial at daily doses of 30–480 mg. Plasma samples were processed through a Biotage (Uppsala, Sweden) ISOLUTE SLE + 200 μL of a 96-well-supported liquid extraction plate. […] PK parameters were calculated using noncompartmental analysis (Phoenix WinNonlin version 7.0, Pharsight Corporation, Mountain View, CA, USA).
outcome-measure: Tmax

Item: `CC(C)NC(=O)[C@H]1CC[C@@H](n2c(NC(=O)c3ccc(F)cc3)nc3ccc(CN4CCC(C(C)(C)O)CC4)cc32)CC1` | Tmax: 2 to 6 h

====

outcome-measure: IC50 (µM)
Entry rule: numbers only, all in µM.

UniProtKB P08684 assay, compound CC(C)NC(=O)[C@H]1CC[C@@H](n2c(NC(=O)c3ccc(F)cc3)nc3ccc(CN4CCC(C(C)(C)O)CC4)cc32)CC1 [TSR-011] , recorded IC50 = 23.3

====

Biological target: hERG (Homo sapiens, UniProt Q12809)
Sequence (Q12809 whole entry): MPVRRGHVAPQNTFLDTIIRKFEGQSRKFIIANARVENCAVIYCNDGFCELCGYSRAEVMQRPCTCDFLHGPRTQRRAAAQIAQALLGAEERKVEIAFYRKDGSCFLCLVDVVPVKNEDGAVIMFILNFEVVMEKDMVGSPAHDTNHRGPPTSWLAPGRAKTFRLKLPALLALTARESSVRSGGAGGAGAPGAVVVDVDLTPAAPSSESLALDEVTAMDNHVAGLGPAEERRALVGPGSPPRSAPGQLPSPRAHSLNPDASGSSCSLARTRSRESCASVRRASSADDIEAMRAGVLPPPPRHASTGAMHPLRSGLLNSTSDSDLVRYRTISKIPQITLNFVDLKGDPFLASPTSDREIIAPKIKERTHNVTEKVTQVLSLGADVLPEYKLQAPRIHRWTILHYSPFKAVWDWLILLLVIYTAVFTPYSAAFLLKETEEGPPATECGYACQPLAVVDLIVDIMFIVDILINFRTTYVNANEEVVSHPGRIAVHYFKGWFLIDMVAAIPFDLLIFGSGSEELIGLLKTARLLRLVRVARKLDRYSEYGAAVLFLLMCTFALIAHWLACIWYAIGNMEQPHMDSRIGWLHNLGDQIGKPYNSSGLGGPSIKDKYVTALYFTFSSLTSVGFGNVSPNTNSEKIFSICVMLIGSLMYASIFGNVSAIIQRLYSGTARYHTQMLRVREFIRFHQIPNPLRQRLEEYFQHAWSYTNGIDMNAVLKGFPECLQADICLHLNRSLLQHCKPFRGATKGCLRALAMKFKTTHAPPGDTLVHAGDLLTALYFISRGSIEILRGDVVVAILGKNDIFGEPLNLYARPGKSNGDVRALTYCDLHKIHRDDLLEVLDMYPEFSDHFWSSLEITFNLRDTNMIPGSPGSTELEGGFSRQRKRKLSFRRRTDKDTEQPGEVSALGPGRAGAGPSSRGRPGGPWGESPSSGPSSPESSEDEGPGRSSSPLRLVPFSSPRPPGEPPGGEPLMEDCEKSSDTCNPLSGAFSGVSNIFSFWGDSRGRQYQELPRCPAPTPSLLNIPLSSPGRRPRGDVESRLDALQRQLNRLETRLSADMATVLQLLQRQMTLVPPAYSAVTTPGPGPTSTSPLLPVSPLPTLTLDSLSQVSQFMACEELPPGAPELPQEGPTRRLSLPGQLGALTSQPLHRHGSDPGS
Test: hERG in vitro test, displacement of dofetilide binding
outcome-measure: IC50 (nM)
Entry rule: numbers only, all in nM.

Item: `CC(C)NC(=O)[C@H]1CC[C@@H](n2c(NC(=O)c3ccc(F)cc3)nc3ccc(CN4CCC(C(C)(C)O)CC4)cc32)CC1` | IC50: 2300

====

Biological target: CYP2D6 (Homo sapiens, UniProt P10635)
Sequence (P10635 whole entry): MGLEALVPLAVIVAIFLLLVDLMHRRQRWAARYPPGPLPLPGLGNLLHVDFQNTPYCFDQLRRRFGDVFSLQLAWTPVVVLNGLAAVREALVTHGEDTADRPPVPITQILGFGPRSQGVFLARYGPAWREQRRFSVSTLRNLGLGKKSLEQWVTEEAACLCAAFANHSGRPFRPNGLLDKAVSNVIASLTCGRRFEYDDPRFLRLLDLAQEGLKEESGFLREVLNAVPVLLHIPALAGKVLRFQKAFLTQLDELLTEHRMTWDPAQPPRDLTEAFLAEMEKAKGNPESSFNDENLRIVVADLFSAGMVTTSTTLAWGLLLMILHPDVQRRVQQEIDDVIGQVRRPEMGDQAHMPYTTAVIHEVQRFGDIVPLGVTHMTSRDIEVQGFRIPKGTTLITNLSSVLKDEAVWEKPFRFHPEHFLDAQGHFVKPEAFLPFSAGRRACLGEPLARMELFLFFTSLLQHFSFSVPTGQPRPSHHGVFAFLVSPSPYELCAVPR
Experiment: biochemical
outcome-measure: pIC50
Scale for pIC50: -log10 of concentration given in mol/L; no unit attached.

CYP2D6 (Homo sapiens, UniProt P10635) assay, molecule CC(C)NC(=O)[C@H]1CC[C@@H](n2c(NC(=O)c3ccc(F)cc3)nc3ccc(CN4CCC(C(C)(C)O)CC4)cc32)CC1 [TSR-011] , recorded pIC50 = 4.48

====

Assay: Phase 1 trial: plasma pharmacokinetics of TSR-011 IR (LC-MS/MS, noncompartmental analysis)
Assay type: in vivo, human
Settings: human, plasma; cycle 2/day 1, daily oral 80–480 mg
Protocol: To evaluate PK and establish the RP2D, blood samples were collected from all patients in the phase 1 dose-escalation trial at daily doses of 30–480 mg. Plasma samples were processed through a Biotage (Uppsala, Sweden) ISOLUTE SLE + 200 μL of a 96-well-supported liquid extraction plate. […] PK parameters were calculated using noncompartmental analysis (Phoenix WinNonlin version 7.0, Pharsight Corporation, Mountain View, CA, USA).
outcome-measure: Cmax

Item: CC(C)NC(=O)[C@H]1CC[C@@H](n2c(NC(=O)c3ccc(F)cc3)nc3ccc(CN4CCC(C(C)(C)O)CC4)cc32)CC1 [TSR-011] | Cmax: 447 to 3330 nM

====

Assay: Phase 1 trial: plasma pharmacokinetics of TSR-011 IR (LC-MS/MS, noncompartmental analysis)
Format: in vivo, human
Conditions: human, plasma, po; cycle 1/day 1, across cohorts; read-out: Apparent volume of distribution
outcome-measure: Vd/F

Item: CC(C)NC(=O)[C@H]1CC[C@@H](n2c(NC(=O)c3ccc(F)cc3)nc3ccc(CN4CCC(C(C)(C)O)CC4)cc32)CC1 [TSR-011] | Vd/F: 188 to 1620 L

====

Test: Phase 1 trial: plasma pharmacokinetics of TSR-011 IR (LC-MS/MS, noncompartmental analysis)
Type: in vivo, human
Details: human, plasma, po; cycle 1/day 1, across cohorts
outcome-measure: half-life

Item: CC(C)NC(=O)[C@H]1CC[C@@H](n2c(NC(=O)c3ccc(F)cc3)nc3ccc(CN4CCC(C(C)(C)O)CC4)cc32)CC1 [TSR-011] | half-life: 420 to 1620 min

====

Biological target: hERG (Homo sapiens)
Assay: hERG channel functional assay
Assay type: biochemical
Details: read-out: IC50, inhibition of the hERG channel, functional assay
outcome-measure: IC50 (nM)
Entry rule: numbers only, all in nM.

Item: `CC(C)NC(=O)[C@H]1CC[C@@H](n2c(NC(=O)c3ccc(F)cc3)nc3ccc(CN4CCC(C(C)(C)O)CC4)cc32)CC1` | IC50: 172
